System: multidrug-resistant Pseudomonas aeruginosa MDR-PA 18-202
test.details: Antibacterial activity test, MIC by microbroth dilution
Assay type: cell-based
assay.conditions: 37° C., 20-22 hours
In this section we review reported Minimum bacteriostatic concentration values for a set of molecules.

Consider the following illustrative entries.
[
  {
    "molecule": "O=C(O)c1cc(O)c2c(c1)C(=O)c1cccc(O)c1C2=O [Cassic acid]",
    "result": ">128 µg/mL"
  },
  {
    "molecule": "Nc1ccc(Br)cc1 [P-Bromoaniline, P-bromoaniline]",
    "result": ">128 µg/mL"
  }
]

// below: Minimum bacteriostatic concentration requested for another molecule
Challenge: Specify Minimum bacteriostatic concentration for O=C(Nc1ccc(Br)cc1)c1cc(O)c2c(c1)C(=O)c1cccc(O)c1C2=O [p-Bromoaniline cassic acid ester] , system multidrug-resistant Pseudomonas aeruginosa MDR-PA 18-202.
Response given: >128 µg/mL
